study_system: RPS10 (Homo sapiens)
Construct: made in house; host or cells: E. coli BL-21
Assay type: binding
test_conditions: 1Ai conc. 4 uM
The following molecules are shown together with reported RPS10 fluorescence ratio to control values.
Please reply with the value in numeric form only.

Take a look at these entries with their results.
Cc1cc(-n2c(C)cc(-c3csc(N)n3)c2C)no1 [1Ai-6464]: 0.8558
COc1cccc(Nc2nc(-c3ccc(NC(C)=O)cc3)c(C)s2)c1 [1Ai-1869]: 0.5488
O=C(C=Cc1ccc(Cl)s1)Nc1cccc2ncccc12 [1Ai-4860]: 0.8788

Continue with the next molecule.
INPUT: Complete the entry with RPS10 fluorescence ratio to control for Cc1ccc(C(=O)c2cc(O)c(O)c([N+](=O)[O-])c2)cc1 [1Ai-5576]
OUTPUT: 1.348

---

study_system: RPS10 (Homo sapiens, UniProt P46783)
Construct: made in house; host or cells: E. coli BL-21
Type: binding
test_conditions: 1Ai conc. 64 uM
Cut-off 1 on RPS10 fluorescence ratio to control, inclusive. At or above means y; below means n.

CN(C)CC1CCn2cc(c3ccccc32)C2=C(C(=O)NC2=O)c2cn(c3ccccc23)CCO1 (centres unmarked): n
O=C(CSc1nc(-c2ccccc2)cn1-c1ccccc1)NC(=O)Nc1ccccc1: n

INPUT: Check the entry "CCOc1cc(C(=O)Nc2ccc(Cl)c(-c3nc4ccccc4[nH]3)c2)cc(OCC)c1OCC" : does RPS10 fluorescence ratio to control equal or exceed 1?
OUTPUT: y

INPUT: Check the entry COc1ccc2oc(C(=O)OC(C)C(=O)Nc3sccc3C(N)=O)c(C)c2c1 (centres unmarked) : does RPS10 fluorescence ratio to control equal or exceed 1?
OUTPUT: y

INPUT: Check the entry "Cc1ccc(C(=O)c2cc(O)c(O)c([N+](=O)[O-])c2)cc1" : does RPS10 fluorescence ratio to control equal or exceed 1?
OUTPUT: n

---

study_system: RPS10 (Homo sapiens)
Construct: made in house; host or cells: E. coli BL-21
Assay type: binding
test_conditions: 1Ai conc. 16 uM
test_readout: RPS10 fluorescence ratio to control
Please reply with the value in numeric form only.

Take a look at these entries with their results.
O=C(C=Cc1ccc(Cl)s1)Nc1cccc2ncccc12: 0.7263
C=CCNC(=O)CN1CCN(Cc2nc3cc(-c4ccc(Cl)cc4)sc3c(=O)[nH]2)CC1: 0.4083
Oc1cc(Cl)ccc1Oc1ccc(Cl)cc1Cl: 0.7439
CCOC(=O)c1ccsc1NC(=O)CN1C(=O)NC(C)(c2cccc3ccccc23)C1=O (centres unmarked): 0.1506
CCOc1cc(C(=O)Nc2ccc(Cl)c(-c3nc4ccccc4[nH]3)c2)cc(OCC)c1OCC: 1.16

INPUT: Complete the entry with RPS10 fluorescence ratio to control for Cn1c(=O)c2ccccc2n2c(CNC(c3ccc4c(c3)CCC4)c3cccs3)nnc12 (centres unmarked)
OUTPUT: 0.1412

INPUT: Complete the entry with RPS10 fluorescence ratio to control for "COc1ccc(C=C2CSc3ccc(Cl)cc3C2=O)cc1O"
OUTPUT: 0.1497

INPUT: Complete the entry with RPS10 fluorescence ratio to control for "O=C(COc1ccccc1[N+](=O)[O-])NCc1ccc(-c2ccc(Br)cc2)o1"
OUTPUT: 0.762

INPUT: Complete the entry with RPS10 fluorescence ratio to control for "Cc1ccc(C(=O)c2cc(O)c(O)c([N+](=O)[O-])c2)cc1"
OUTPUT: 0.3698

INPUT: Complete the entry with RPS10 fluorescence ratio to control for COc1ccc2oc(C(=O)OC(C)C(=O)Nc3sccc3C(N)=O)c(C)c2c1 (centres unmarked)
OUTPUT: 0.983

INPUT: Complete the entry with RPS10 fluorescence ratio to control for "COc1cccc(Nc2nc(-c3ccc(NC(C)=O)cc3)c(C)s2)c1"
OUTPUT: 0.3725

INPUT: Complete the entry with RPS10 fluorescence ratio to control for "O=C(CSc1nc(-c2ccccc2)cn1-c1ccccc1)NC(=O)Nc1ccccc1"
OUTPUT: 0.2868

INPUT: Complete the entry with RPS10 fluorescence ratio to control for "Cc1ccc(C)n1-c1cc([N+](=O)[O-])ccc1N1CCN(C(=O)c2ccccc2)CC1"
OUTPUT: 0.9394

INPUT: Complete the entry with RPS10 fluorescence ratio to control for "O=c1cc(CN2CCOCC2)occ1OCCCCCSc1ccnc2cc(C(F)(F)F)ccc12"
OUTPUT: 1.217
